Measured values drawn from patent US20250215039A1 for this set.

test system: cancer cell lines; experiment: Cancer cell proliferation activity (CellTiterGlo, 72 h); type: cell-based; conditions: Homo sapiens, UO-31, 72 h, UO31 cell line (kidney), 72 h; read-out: IC50
Endpoint Label: IC50 (nM)
Number only, in nM; omit the unit.

Previously resolved entries follow.
compound=C[C@]1(CO)O[C@@H](n2cnc3c(N)nc(F)nc32)C[C@@H]1O target_system="cancer cell lines" assay_result=300
compound=COC[C@]1(CO)O[C@@H](n2cnc3c(N)nc(F)nc32)C[C@@H]1O target_system="cancer cell lines" assay_result=280
compound=CC[C@]1(CO)O[C@@H](n2cnc3c(N)nc(F)nc32)C[C@@H]1O target_system="cancer cell lines" assay_result=630
compound=CCC[C@]1(CO)O[C@@H](n2cnc3c(N)nc(F)nc32)C[C@@H]1O target_system="cancer cell lines" assay_result=240

stdin: Entry CC(C)C[C@]1(CO)O[C@@H](n2cnc3c(N)nc(F)nc32)C[C@@H]1O has what IC50?
stdout: 2150

---

This listing pairs compounds with measured pIC50.
system: cancer cell lines; assay: Cancer cell proliferation activity (CellTiterGlo, 72 h); format: cell-based; details: Homo sapiens, OVCAR-3, 72 h, OVCAR3 cell line (ovary), 72 h; read-out: IC50
Please express pIC50 as -log10 of the molar concentration.

compound=C=C[C@]1(CO)O[C@@H](Nc2[nH]c(=O)ncc2Br)C[C@@H]1O assay_result=5.51
compound="Nc1ccn([C@@H]2O[C@H](CO)[C@@H](O)C2(F)F)c(=O)n1 [gemcitabine, reference compound]" assay_result=8.51
compound=C[C@]1(CO)O[C@@H](n2cc(F)c(N)nc2=O)C[C@@H]1O assay_result=5.51

stdin: Any idea what its pIC50 is? The compound is C[C@]1(CO)O[C@@H](n2cc(F)c(=O)[nH]c2=O)C[C@@H]1O
stdout: 5.23

---

system: cancer cell lines; experiment: Cancer cell proliferation activity (CellTiterGlo, 72 h); assay type: cell-based; conditions: Homo sapiens, UO-31, 72 h, UO31 cell line (kidney), 72 h; read-out: IC50
pIC50 for assorted molecules
The read-out pIC50 is expressed as -log10 of concentration in moles per litre.

molecule="CC[C@]1(CO)O[C@@H](n2cnc3c(N)nc(F)nc32)[C@H](O)[C@@H]1O [Cpd. No. 173]" endpoint_label=pIC50 assay_result=7.30
molecule="Nc1nc(F)nc2c1ncn2[C@H]1C[C@H](O)[C@](CO)(CF)O1 [compound 150]" endpoint_label=pIC50 assay_result=5.34

// next item, pIC50 requested
stdin: Field request: pIC50 | item: Nc1ccn([C@@H]2O[C@H](CO)[C@@H](O)C2(F)F)c(=O)n1 [gemcitabine, reference compound]
stdout: 8.43

---

test system: cancer cell lines; test: Cancer cell proliferation activity (CellTiterGlo, 72 h); format: cell-based; details: Homo sapiens, IGROV-1, 72 h, IGROV1 cell line (ovary), 72 h; read-out: IC50
Endpoint Label: IC50 (nM)
Express your answer in nM, writing the number without its unit.

Below: 4 compounds and their reported IC50.
compound=COC[C@]1(CO)O[C@@H](n2cnc3c(N)nc(F)nc32)C[C@@H]1O assay_result=340
compound="Nc1ccn([C@@H]2O[C@H](CO)[C@@H](O)C2(F)F)c(=O)n1 [gemcitabine, reference compound]" assay_result=4.8
compound=C[C@]1(CO)O[C@@H](n2cc(F)c(N)nc2=O)C[C@@H]1O assay_result=1650
compound=Nc1nc(F)nc2c1ncn2[C@H]1C[C@H](O)[C@](CO)(CF)O1 assay_result=2030

stdin: Look at this compound and give its reported IC50. CC[C@]1(CO)O[C@@H](n2cnc3c(N)nc(F)nc32)[C@H](O)[C@@H]1O
stdout: 50

---

test system: cancer cell lines; assay: Cancer cell proliferation activity (CellTiterGlo, 72 h); assay type: cell-based; conditions: Homo sapiens, ACHN, 72 h, ACHN cell line (kidney), 72 h; read-out: IC50
Endpoint Label: IC50 (µM)
Quick reminder: number only, in µM, skip the unit.

Answered cases to consult:
molecule=CC[C@]1(CO)O[C@@H](n2cc(F)c(N)nc2=O)C[C@@H]1O endpoint_label=IC50 assay_result=3.2
molecule=CCC[C@]1(CO)O[C@@H](n2cnc3c(N)nc(F)nc32)C[C@@H]1O endpoint_label=IC50 assay_result=2.54
molecule=C[C@]1(CO)O[C@@H](n2cc(F)c(N)nc2=O)C[C@@H]1O endpoint_label=IC50 assay_result=0.05
molecule=O=c1[nH]c(=O)n([C@H]2C[C@H](O)[C@](CO)(CF)O2)cc1F endpoint_label=IC50 assay_result=1.51
molecule=CC[C@]1(CO)O[C@@H](n2cnc3c(N)nc(F)nc32)[C@H](O)[C@@H]1O endpoint_label=IC50 assay_result=0.28

stdin: Entry COC[C@]1(CO)O[C@@H](n2cnc3c(N)nc(F)nc32)C[C@@H]1O has what IC50?
stdout: 2.85

stdin: Thanks! And Nc1ccn([C@@H]2O[C@H](CO)[C@@H](O)C2(F)F)c(=O)n1 [gemcitabine, reference compound] ?
stdout: 0.0015

stdin: Repeat with C[C@]1(CO)O[C@@H](n2cc(F)c(=O)[nH]c2=O)C[C@@H]1O
stdout: 0.27

stdin: Another molecule to look at: C[C@]1(CO)O[C@@H](n2cnc3c(N)nc(F)nc32)C[C@@H]1O
stdout: 3.3

---

# pIC50 per record follows
test system: cancer cell lines; experiment: Cancer cell proliferation activity (CellTiterGlo, 72 h); type: cell-based; settings: Homo sapiens, C-33-A, 72 h, C33A cell line (cervical), 72 h; read-out: IC50
In simple prose, pIC50 is minus the logarithm base ten of a concentration in moles per litre.

Worked cases, pIC50 given:
compound=Nc1nc(F)nc2c1ncn2[C@H]1C[C@H](O)[C@](CO)(CF)O1 target_system="cancer cell lines" endpoint_label=pIC50 assay_result=5.38
compound=O=c1[nH]c(=O)n([C@H]2C[C@H](O)[C@](CO)(CF)O2)cc1F target_system="cancer cell lines" endpoint_label=pIC50 assay_result=5.41
compound=CC(C)C[C@]1(CO)O[C@@H](n2cnc3c(N)nc(F)nc32)C[C@@H]1O target_system="cancer cell lines" endpoint_label=pIC50 assay_result=5.37
compound=COC[C@]1(CO)O[C@@H](n2cnc3c(N)nc(F)nc32)C[C@@H]1O target_system="cancer cell lines" endpoint_label=pIC50 assay_result=6.19
compound=CCC[C@]1(CO)O[C@@H](n2cnc3c(N)nc(F)nc32)C[C@@H]1O target_system="cancer cell lines" endpoint_label=pIC50 assay_result=6.20

stdin: Any idea what its pIC50 is? The compound is Nc1ccn([C@@H]2O[C@H](CO)[C@@H](O)C2(F)F)c(=O)n1 [gemcitabine, reference compound]
stdout: 8.36

stdin: Also need CC[C@]1(CO)O[C@@H](n2cnc3c(N)nc(F)nc32)[C@H](O)[C@@H]1O , thanks.
stdout: 6.72

stdin: // next record C[C@]1(CO)O[C@@H](n2cc(F)c(=O)[nH]c2=O)C[C@@H]1O
stdout: 5.80

stdin: Record: C[C@]1(CO)O[C@@H](n2cnc3c(N)nc(F)nc32)C[C@@H]1O
stdout: 5.75

---

Below, each of the molecules is paired with its reported pIC50 value.
test system: cancer cell lines; assay: Cancer cell proliferation activity (CellTiterGlo, 72 h); assay type: cell-based; details: Homo sapiens, SF-295, 72 h, SF295 cell line (brain), 72 h; read-out: IC50
Just the number, please; pIC50 means minus log10 of the concentration in mol/L.

stdin: Which value of pIC50 has been reported for CC[C@]1(CO)O[C@@H](n2cnc3c(N)nc(F)nc32)[C@H](O)[C@@H]1O in the records?
stdout: 6.36

stdin: Could you do the same for CCC[C@]1(CO)O[C@@H](n2cnc3c(N)nc(F)nc32)C[C@@H]1O , please?
stdout: 5.78

stdin: Field entry: C[C@]1(CO)O[C@@H](n2cnc3c(N)nc(F)nc32)C[C@@H]1O
stdout: 5.71

---

# pIC50 values compiled below
tested on: cancer cell lines; assay: Cancer cell proliferation activity (CellTiterGlo, 72 h); assay type: cell-based; conditions: Homo sapiens, U-87 MG, 72 h, U87MG (brain), 72 h; read-out: IC50 cell proliferation
Give only the number. pIC50 is defined as minus log10 of concentration in molar units.

Some compounds with known pIC50 results, for comparison:
compound="C[C@]1(CO)O[C@@H](n2cnc3c(N)nc(F)nc32)[C@H](O)[C@@H]1O [Cpd. No. 178]" assay_result=5.70
compound="Nc1nc(F)nc2c1ncn2[C@@H]1O[C@H](CO)[C@@H](O)[C@H]1O [compound 184]" assay_result=7.52

stdin: What measured pIC50 is associated with C[C@]1(CO)O[C@@H](n2ccc(N)nc2=O)[C@@H](O)[C@@H]1O [Cpd. No. 193] on cancer cell lines?
stdout: 5.97

stdin: Do the same for C[C@]1(CO)O[C@@H](n2ccc(N)nc2=O)C(F)(F)[C@@H]1O [Cpd. No. 190] please
stdout: 5.54

stdin: // same read-out, input: CCC[C@]1(CO)O[C@@H](n2cnc3c(N)nc(F)nc32)[C@H](O)[C@@H]1O [compound 195]
stdout: 6.82

stdin: Ok, now Nc1ccn([C@H]2C[C@H](O)[C@](CO)(CF)O2)c(=O)n1 [Cpd. No. 198]
stdout: 6.40

stdin: Proceed to Nc1nc(F)nc2c1ncn2[C@H]1C[C@H](O)[C@@H](CO)O1 [compound 171]
stdout: 6.21

stdin: Then Nc1nc(F)nc2c1ncn2[C@@H]1O[C@H](CO)[C@@H](O)[C@@H]1O [compound 170] ?
stdout: 5.25
